assay: Transdermal delivery of melatonin: plasma level of melatonin after applying composition to skin of a subject; conditions: human, plasma, topical, 3 mg, Plasma level of melatonin, Isoleucine hexyl ester 278.04 mM, 0.60 mL applied to skin, 2 hr after transdermal administration
Value type: concentration at 2 hr (ng/mL)

1) COc1ccc2[nH]cc(CCNC(C)=O)c2c1 [Melatonin]
1.3

* * *

assay: Transdermal delivery of melatonin: plasma level of melatonin after applying composition to skin of a subject; details: human, plasma, topical, Plasma level of melatonin, 6-(Dimethylamino)hexyl 2-acetoxybenzoate hydrochloride 203.56 mM, 0.375 mL applied to skin, 0 hr after transdermal administration
Value type: concentration at 0 h (ng/mL)

1. COc1ccc2[nH]cc(CCNC(C)=O)c2c1 [Melatonin]
0
